- Test system: A549 NSCLC
- test protocol: NCI tumour cell line growth inhibition, 48 h
endpoint: TGI

{"compound": "COc1ccc2c3c1OC1C(F)C=CC4(O)C(C2)NCCC314 (stereo not given)", "endpoint": "TGI", "experimental result": "23.1 µM"}
{"compound": "Cc1c(C)c2ccc(OCC(O)COC(C)C)c(C)c2oc1=O (stereo not given)", "endpoint": "TGI", "experimental result": "> 100 µM"}
{"compound": "CN(CCS(=O)(=O)N1C(=O)C2CCCN2C(=O)[C@@H]1Cc1ccccc1)C(=O)OCc1ccccc1 (stereo not given in full)", "endpoint": "TGI", "experimental result": "> 100 µM"}
{"compound": "COc1ccc(C(CC2(c3ccc(OC)cc3)SCCCS2)NC(C)=O)cc1 (stereo not given)", "endpoint": "TGI", "experimental result": "> 100 µM"}
{"compound": "N#CC12C(=O)N3C(=NC(c4ccco4)NC3c3ccco3)C1(C#N)C(c1ccco1)NC1=C2CCCC1 (stereo not given)", "endpoint": "TGI", "experimental result": "> 100 µM"}

----------
- Test system: SF-295 CNS
- test protocol: NCI tumour cell line growth inhibition, 48 h
Below, each entry is listed with its recorded TGI.
endpoint: TGI

{"compound": "Clc1c(Cl)[n+](Cc2ccc3ccccc3c2)cn1Cc1ccc2ccccc2c1", "experimental result": "2.82 µM"}
{"compound": "O=C1C2C(C(=O)N1c1ccccc1)C1(c3ccccc3)CCC2(C(=O)c2ccccc2)O1 (stereo unspecified)", "experimental result": "> 10 µM"}
{"compound": "COc1ccc(C2(Cl)c3ccccc3N(c3ccccc3)c3ccccc32)cc1", "experimental result": "1.85 µM"}
{"compound": "N#CC12C(=O)NC(=O)C1(C#N)C1C=CC2CC1 (stereo unspecified)", "experimental result": "> 100 µM"}
{"compound": "O=C(NCCCCN1CCOCC1)c1cc2ccccc2o1", "experimental result": "> 100 µM"}
{"compound": "COC(=O)c1cc2c(=O)n(C)c3ccccc3n2c1C(=O)OC", "experimental result": "> 100 µM"}
{"compound": "COc1ccc(C(c2ccccc2)(c2ccc(OC)cc2)N2C(=O)NC3C(CCCCC(=O)NCCCCCCOP(OCCC#N)N(C(C)C)C(C)C)SCC32)cc1 (stereo unspecified)", "experimental result": "31.2 µM"}
{"compound": "FC1(F)[Se]C2C3CCC(C3)C2C1(F)F (stereo unspecified)", "experimental result": "> 100 µM"}
{"compound": "N#CC(c1ccccc1)N(CCCCCCN(C(=O)c1ccccc1)C(C#N)c1ccccc1)C(=O)c1ccccc1 (stereo unspecified)", "experimental result": "> 100 µM"}
{"compound": "NC(=O)C1CCCN1C(=O)C(Cc1cnc[nH]1)NC(=O)C1CCCC1 (stereo unspecified)", "experimental result": "> 100 µM"}
{"compound": "NC(=O)NNC(=O)CCn1[nH]c(=O)c(Cl)c(Cl)c1=O", "experimental result": "> 100 µM"}

----------
- Test system: OVCAR-5 ovarian
- test protocol: NCI tumour cell line growth inhibition, 48 h; in the data active = GI50 below about 0.43 µM; inactive = the rest
Outcome codes: 1 = active, 0 = inactive

{"compound": "C#CC[C@@H]1C[C@]2(C)[C@H]3CC[C@@H]4[C@H]5C(C(=C)C)CC[C@]5(C(=O)NCCCN5CCN(CCCN)CC5)CC[C@@]4(C)[C@]3(C)CC[C@H]2C(C)(C)[C@H]1OC(C)=O (stereo partly specified)", "label class": 0}
{"compound": "COc1cc(/C=C2\\CC3C4CC=C5C[C@@H](OC(C)=O)CC[C@]5(C)C4CC[C@]3(C)C2=O)ccc1OCCN1CCCCC1 (stereo partly specified)", "label class": 0}
{"compound": "O=c1c2ccccc2sc2c(NCCCNCCO)nc3ccccc3c12", "label class": 0}
{"compound": "OC(CNc1ccnc2cc(Cl)ccc12)CNc1ccnc2cc(Cl)ccc12", "label class": 0}
{"compound": "COc1ccc2ncn(-c3cc(O[C@H](C)c4ccccc4C(F)(F)F)c(C(N)=O)s3)c2c1", "label class": 1}
{"compound": "COc1c/c(=C2\\C=c3ccccc3=N2)[nH]/c1=C\\c1[nH]c(C)cc1C", "label class": 1}

Each recorded value in this set is attributed to PubChem BioAssay (NCI).
